Dear all, this message contains log10 of Ki results, target or system 5-hydroxytryptamine receptor 4 (Cavia porcellus).
Kindly note that the scale is log10 and the underlying Ki is in nM.

- COMPOUND: "CC(C)n1c(=O)n(C(=O)NC[C@@H]2CCN3CCC[C@@H]23)c2ccccc21 (relative stereo)"
  MEASUREMENT KIND: "log10 of Ki"
  ASSAY RESULT: 0.85
- COMPOUND: "Cn1nc(C(=O)OC[C@@H]2CCN3CCC[C@@H]23)c2ccccc21 (single isomer, unassigned)"
  MEASUREMENT KIND: "log10 of Ki"
  ASSAY RESULT: -0.40
- COMPOUND: "O=C(NC[C@@H]1CCN2CCC[C@@H]12)c1cc(Cl)cn2ccnc12"
  MEASUREMENT KIND: "log10 of Ki"
  ASSAY RESULT: 0.15

Hey, quick one: what's log10 of Ki for each of these?
1. COc1cc(N)c(Cl)cc1C(=O)NC[C@@H]1CCN2CCC[C@@H]12
2. COc1cc(N)c(Cl)cc1C(=O)N[C@@H]1C2CC3CN(C2)CC31 (stereo partly specified)
3. COc1cc(N)c(Cl)cc1C(=O)OC[C@@H]1CCN2CCC[C@@H]12

output:
0.72
1.46
-0.74

Values were extracted from ChEMBL document CHEMBL1149398.
